These measurements were taken from patent US20250270339A1.

subject of test: huTfR Apical Domain-Avi-His (human)
Sequence (chain, as listed by the source limits assumed): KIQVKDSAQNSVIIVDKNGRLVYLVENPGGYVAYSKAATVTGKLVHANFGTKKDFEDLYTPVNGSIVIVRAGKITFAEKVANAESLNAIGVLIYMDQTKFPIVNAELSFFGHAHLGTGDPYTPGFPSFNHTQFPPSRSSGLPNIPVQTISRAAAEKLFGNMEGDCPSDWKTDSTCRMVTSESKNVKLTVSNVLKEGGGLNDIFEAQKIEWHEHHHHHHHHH
protocol description: SPR (Carterra LSA), 2+2 captured
Some binders, each annotated with its measured Kd.
A number alone suffices; assume nM.

Answered cases to consult:
TFR.15.WH8.1.42A.LH 2+2 anti-TfR bispecific antibody (bispecific antibody, part only; not given: isotype IgG backbone and linker, not shown: another chain or arm of the molecule; a dimerising Fc or GST; large carriers; small tags and cut ends) scFv: EIVLTQSPATLSLSPGERATLSCRASSSIRAMNWYQQKPGQAPRRLIYDTSNRATGIPARFSGSGSGTDFTLTISSLEPEDFAVYYCHQRSSYPWTFGGGTKVEIKGGSEGKSSGSGSESKSTGGSQVQLVQSGAEVKKPGASVKVSCKASGYTFTSYYMHWVRQAPGQGLEWMGNIYPGSGSSNYAQKFQGRVTMTRDTSTSTVYMELSSLRSEDTAVYYCTRSSYYGNFDTMDNWGQGTTVTVSS	190
TFR.15.WH8.1.42A 2+2 anti-TfR bispecific antibody (bispecific antibody, part only; not given: isotype IgG backbone and linker, not shown: another chain or arm of the molecule; a dimerising Fc or GST; large carriers; small tags and cut ends) scFv: QVQLVQSGAEVKKPGASVKVSCKASGYTFTSYYMHWVRQAPGQGLEWMGNIYPGSGSSNYAQKFQGRVTMTRDTSTSTVYMELSSLRSEDTAVYYCTRSSYYGNFDTMDNWGQGTTVTVSSGGSEGKSSGSGSESKSTGGSEIVLTQSPATLSLSPGERATLSCRASSSIRAMNWYQQKPGQAPRRLIYDTSNRATGIPARFSGSGSGTDFTLTISSLEPEDFAVYYCHQRSSYPWTFGGGTKVEIK	160

Turning now to a further record.
Problem: Param item = TFR.15.WH8.1.24H 2+2 anti-TfR bispecific antibody (bispecific antibody, part only; not given: isotype IgG backbone and linker, not shown: another chain or arm of the molecule; a dimerising Fc or GST; large carriers; small tags and cut ends) scFv: QVQLVQSGAEVKKPGASVKVSCKASGYTFTSYYMHWVRQAPGQGLEWMGNIYPGSGSSNYAQKFQGRVTMTRDTSTSTVYMELSSLRSEDTAVYYCTRSHYYGNFDTMDNWGQGTTVTVSSGGSEGKSSGSGSESKSTGGSEIVLTQSPATLSLSPGERATLSCRASSSIRYMNWYQQKPGQAPRRLIYDTSNRATGIPARFSGSGSGTDFTLTISSLEPEDFAVYYCHQRSSYPWTFGGGTKVEIK ; retrieve measured Kd.
Result: 5.6
